# conditions: 318.15 K; 101 kPa

smiles_record: COCCOC
viscosity (mPa·s): 0.3444
//
smiles_record: OCCCOCCCO
viscosity (mPa·s): 20.8
//
smiles_record: CCCC[N+]1(C)CCCC1.FC(F)(F)C(F)(F)[P-](F)(F)(F)(C(F)(F)C(F)(F)F)C(F)(F)C(F)(F)F
viscosity (mPa·s): 100.3
//
smiles_record: C[N+](C)(CCCS(=O)(=O)O)C1CCCCC1.Cc1ccc(S(=O)(=O)[O-])cc1
viscosity (mPa·s): 17830
//
smiles_record: OCCNCCO
viscosity (mPa·s): 134.5

---

# conditions: 313.15 K; 101 kPa
Rule: viscosity under 20 mPa·s gives Not satisfied, otherwise Satisfied.

smiles_record: COCCOC
classification: Not satisfied
//
smiles_record: OCCCOCCCO
classification: Satisfied
//
smiles_record: CCCC[N+]1(C)CCCC1.FC(F)(F)C(F)(F)[P-](F)(F)(F)(C(F)(F)C(F)(F)F)C(F)(F)C(F)(F)F
classification: Satisfied
//
smiles_record: C[N+](C)(CCCS(=O)(=O)O)C1CCCCC1.Cc1ccc(S(=O)(=O)[O-])cc1
classification: Satisfied

---

# conditions: 298.15 K; 101 kPa
The compounds listed here are annotated with their viscosity.

smiles_record: CCCC[N+]1(C)CCCC1.FC(F)(F)C(F)(F)[P-](F)(F)(F)(C(F)(F)C(F)(F)F)C(F)(F)C(F)(F)F
value_units: mPa·s
viscosity: 283.4
//
smiles_record: CC[n+]1ccn(C)c1.O=C([O-])C(F)(F)F
value_units: mPa·s
viscosity: 32.9
//
smiles_record: OCCCOCCCO
value_units: mPa·s
viscosity: 78.2
//
smiles_record: COCCOC
value_units: mPa·s
viscosity: 0.45

---

# conditions: 293.15 K; 101 kPa
measurement_type: viscosity (mPa·s)

smiles_record: COC(C)=O
result: 0.411
--
smiles_record: C1CCCCC1
result: 0.972
--
smiles_record: c1ccc2ncccc2c1
result: 3.64
--
smiles_record: OCCCOCCCO
result: 115
--
smiles_record: CC[n+]1ccn(C)c1.O=C([O-])C(F)(F)F
result: 39.5

---

# conditions: 308.15 K; 101 kPa
± gives the uncertainty stated by the source.
Listed next: entries and their corresponding viscosity.
measurement_type: viscosity

smiles_record: CCCC[N+]1(C)CCCC1.FC(F)(F)C(F)(F)[P-](F)(F)(F)(C(F)(F)C(F)(F)F)C(F)(F)C(F)(F)F
result: 166.2 ± 9.3 mPa·s
--
smiles_record: OCCCOCCCO
result: 37.2 ± 0.3 mPa·s
--
smiles_record: OCCNCCO
result: 263.1 ± 8.5 mPa·s
--
smiles_record: C[N+](C)(CCCS(=O)(=O)O)C1CCCCC1.Cc1ccc(S(=O)(=O)[O-])cc1
result: 56930 mPa·s

---

# conditions: 323.15 K; 101 kPa
Please assign not fulfilled whenever viscosity is at or above 80 mPa·s, and fulfilled whenever it is below.

compound: COCCOC
classification: fulfilled

compound: CC(CC(C)(C)C)CP(=O)([O-])CC(C)CC(C)(C)C.CCCC[P+](C)(CCCC)CCCC (stereo not given)
classification: not fulfilled

compound: C1CCCCC1
classification: fulfilled

compound: C[N+](C)(CCCS(=O)(=O)O)C1CCCCC1.Cc1ccc(S(=O)(=O)[O-])cc1
classification: not fulfilled

---

# conditions: 308.15 K; 101.33 kPa
viscosity values for the compounds below.

compound: CC(=O)OC(C)C(C)C (centres undefined)
viscosity, mPa·s: 0.69
--
compound: c1ccc2ncccc2c1
viscosity, mPa·s: 2.68
--
compound: CCCCOCC(C)O (centres undefined)
viscosity, mPa·s: 2.142
--
compound: COCCOC
viscosity, mPa·s: 0.3847

---

Each entry below carries its recorded viscosity.
# conditions: 298 K; 101.3 kPa
measurement_type: viscosity (mPa·s)

smiles_record: C1CCCCC1
measurement_type: viscosity
value_units: mPa·s
result: 0.883
--
smiles_record: COCCOC
measurement_type: viscosity
value_units: mPa·s
result: 0.432
--
smiles_record: CCC(C)=O
measurement_type: viscosity
value_units: mPa·s
result: 0.475
--
smiles_record: c1ccc2ncccc2c1
measurement_type: viscosity
value_units: mPa·s
result: 3.475

---

The entries below come with measured viscosity values attached.
# conditions: 303.15 K; 101.33 kPa

compound: CCC(C)=O
value_units: mPa·s
viscosity: 0.366
--
compound: CC(=O)OC(C)C(C)C (centres undefined)
value_units: mPa·s
viscosity: 0.74
--
compound: CCCCCCOC(C)=O
value_units: mPa·s
viscosity: 0.782
--
compound: c1ccc2ncccc2c1
value_units: mPa·s
viscosity: 3.01

---

Here, each record is paired with measured log10 of viscosity data.
# conditions: 303.15 K; 101 kPa
measurement_type: log10 of viscosity (log10 of the value in mPa·s)

molecule: CC[n+]1ccn(C)c1.O=C([O-])C(F)(F)F
log10 of viscosity: 1.44
--
molecule: CCCC[N+]1(C)CCCC1.FC(F)(F)C(F)(F)[P-](F)(F)(F)(C(F)(F)C(F)(F)F)C(F)(F)C(F)(F)F
log10 of viscosity: 2.33
--
molecule: OCCCOCCCO
log10 of viscosity: 1.71
--
molecule: CCOC(=O)C(C)Br (stereo not given)
log10 of viscosity: 0.17
--
molecule: C[N+](C)(CCCS(=O)(=O)O)C1CCCCC1.Cc1ccc(S(=O)(=O)[O-])cc1
log10 of viscosity: 5.06

---

# conditions: 298.15 K; 101.33 kPa
± gives the uncertainty stated by the source.
Items are presented alongside their recorded viscosity.
measurement_type: viscosity

molecule: OCCNCCO
result: 566.3 ± 46 mPa·s
//
molecule: c1ccc2ncccc2c1
result: 3.36 ± 0.04 mPa·s
//
molecule: CC(=O)OC(C)C(C)C (stereo not given)
result: 0.795 ± 0.021 mPa·s
//
molecule: CCCCOCC(C)O (stereo not given)
result: 2.855 ± 0.042 mPa·s
//
molecule: COCCOC
result: 0.4236 ± 0.025 mPa·s
